Test Description: Inhibition of paclitaxel binding to microtubule (unknown origin)
Set-up: species or system Homo sapiens
pIC50: −log10 of the molar value.
Quantity Measured: pIC50

Cpd Smiles: C/C(=C\c1csc(C)n1)[C@@H]1C[C@@H]2O[C@]2(C)CCC[C@H](C)[C@H](O)[C@@H](C)C(=O)C(C)(C)[C@@H](O)CC(=O)O1
Measured Number: 8.48

----------
System: Hs-578T
Test Description: Cytotoxicity against human Hs 578T cells
Format: functional, cell-based

Molecule: C/C(=C\c1csc(C)n1)[C@@H]1C[C@@H]2O[C@]2(C)CCC[C@H](C)[C@H](O)[C@@H](C)C(=O)C(C)(C)[C@@H](O)CC(=O)O1 [PATUPILONE]
IC50: 3 to 92 nM
